# experimental_system: Mu-type opioid receptor (Homo sapiens)
# Sequence (P35372 whole entry): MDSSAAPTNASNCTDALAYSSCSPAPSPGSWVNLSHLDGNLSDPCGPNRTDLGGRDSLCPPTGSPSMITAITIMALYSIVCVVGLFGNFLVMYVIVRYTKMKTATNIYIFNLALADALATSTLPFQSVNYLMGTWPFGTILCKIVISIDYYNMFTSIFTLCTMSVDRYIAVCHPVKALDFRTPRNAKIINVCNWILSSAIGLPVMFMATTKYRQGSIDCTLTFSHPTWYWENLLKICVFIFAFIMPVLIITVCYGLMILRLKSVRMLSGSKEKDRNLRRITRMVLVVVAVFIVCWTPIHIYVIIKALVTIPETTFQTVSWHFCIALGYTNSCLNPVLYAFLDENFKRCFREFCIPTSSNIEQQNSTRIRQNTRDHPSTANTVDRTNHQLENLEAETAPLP
value_type: pIC50
Lab note: report pIC50 as minus log10 of the concentration in molar units, number only.

## Input Recorded pIC50 for "Nc1nc2cc3c(cc2s1)C[C@@H]1[C@@H]2CCCC[C@]32CCN1CC1CCC1" , please?
## Output 7.07

* * *

# experimental_system: Kappa-type opioid receptor (Homo sapiens)
# Sequence (P41145 whole entry): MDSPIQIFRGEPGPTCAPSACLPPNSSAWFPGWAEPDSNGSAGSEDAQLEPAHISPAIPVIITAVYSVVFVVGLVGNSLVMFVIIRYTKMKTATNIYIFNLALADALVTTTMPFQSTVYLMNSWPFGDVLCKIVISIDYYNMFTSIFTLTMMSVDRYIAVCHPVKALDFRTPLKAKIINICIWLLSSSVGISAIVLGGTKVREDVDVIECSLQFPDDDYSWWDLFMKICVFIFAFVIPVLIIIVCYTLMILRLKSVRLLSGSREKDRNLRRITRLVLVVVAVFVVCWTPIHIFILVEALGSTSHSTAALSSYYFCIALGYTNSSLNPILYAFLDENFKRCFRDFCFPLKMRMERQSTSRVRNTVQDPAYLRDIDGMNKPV
# experiment_summary: Displacement of [3H]U69593 from human kappa opioid receptor expressed in CHO cells after 60 mins by scintillation counting
# Type: cell-based
pKi: −log10 of the molar value.
Tick true (1) if pKi is 9 or greater. Tick false (0) if pKi is less than 9.

Solved cases (5 shown):
## Input Answer whether pKi of "c1ccc(CNc2nc3cc4c(cc3s2)C[C@@H]2[C@@H]3CCCC[C@]43CCN2CC2CC2)cc1" is greater than or equal to 9.
## Output false (0)

## Input Answer whether pKi of "CC(=O)Nc1nc2cc3c(cc2s1)C[C@@H]1[C@@H]2CCCC[C@]32CCN1CC1CC1" is greater than or equal to 9.
## Output false (0)

## Input Answer whether pKi of "c1ccc(Nc2nc3cc4c(cc3s2)C[C@@H]2[C@@H]3CCCC[C@]43CCN2CC2CC2)nc1" is greater than or equal to 9.
## Output false (0)

## Input Answer whether pKi of "CN(C)c1nc2cc3c(cc2s1)C[C@@H]1[C@@H]2CCCC[C@]32CCN1CCCF" is greater than or equal to 9.
## Output false (0)

## Input Answer whether pKi of "c1ccc(Nc2nc3cc4c(cc3s2)C[C@@H]2[C@@H]3CCCC[C@]43CCN2CC2CC2)cc1" is greater than or equal to 9.
## Output false (0)

Here's the next entry for you.
## Input Answer whether pKi of "Nc1nc2cc3c(cc2s1)C[C@@H]1[C@@H]2CCCC[C@]32CCN1CCCF" is greater than or equal to 9.
## Output true (1)

* * *

Measured Ratio Ki by item
# Species on record: Homo sapiens
# experiment_summary: Selectivity ratio of Ki for human delta opioid receptor to Ki for human kappa opioid receptor
Could you respond with only the numeric value?

## Input Recorded Ratio Ki for "CN1CC[C@]23CCCC[C@H]2[C@H]1Cc1cc2sc(N)nc2cc13" , please?
## Output 30

## Input Recorded Ratio Ki for "CNc1nc2cc3c(cc2s1)C[C@@H]1[C@@H]2CCCC[C@]32CCN1CC1CCC1" , please?
## Output 20

## Input Recorded Ratio Ki for "c1ccc(Nc2nc3cc4c(cc3s2)C[C@@H]2[C@@H]3CCCC[C@]43CCN2CC2CC2)cc1" , please?
## Output 7

More entries:
## Input Recorded Ratio Ki for "Nc1nc2cc3c(cc2s1)C[C@@H]1[C@@H]2CCCC[C@]32CCN1CCCF" , please?
## Output 180

* * *

Measured Ki by item
# experimental_system: Kappa-type opioid receptor (Homo sapiens)
Kindly provide the numeric value in nM only, without the unit symbol.

The examples below pair each entry with its known result.
## Input Ki of "CCCNc1nc2cc3c(cc2s1)C[C@@H]1[C@@H]2CCCC[C@]32CCN1CCCF" on Kappa-type opioid receptor (Homo sapiens)?
## Output 5.8

## Input Ki of "CC(=O)N(C)c1nc2cc3c(cc2s1)C[C@@H]1[C@@H]2CCCC[C@]32CCN1CC1CC1" on Kappa-type opioid receptor (Homo sapiens)?
## Output 6.9

More entries:
## Input Ki of "CCCNc1nc2cc3c(cc2s1)C[C@@H]1[C@@H]2CCCC[C@]32CCN1CC1CC1" on Kappa-type opioid receptor (Homo sapiens)?
## Output 1.6

* * *

Measured Ki by item
# experimental_system: Delta-type opioid receptor (Homo sapiens, UniProt P41143)
# Sequence (P41143 whole entry): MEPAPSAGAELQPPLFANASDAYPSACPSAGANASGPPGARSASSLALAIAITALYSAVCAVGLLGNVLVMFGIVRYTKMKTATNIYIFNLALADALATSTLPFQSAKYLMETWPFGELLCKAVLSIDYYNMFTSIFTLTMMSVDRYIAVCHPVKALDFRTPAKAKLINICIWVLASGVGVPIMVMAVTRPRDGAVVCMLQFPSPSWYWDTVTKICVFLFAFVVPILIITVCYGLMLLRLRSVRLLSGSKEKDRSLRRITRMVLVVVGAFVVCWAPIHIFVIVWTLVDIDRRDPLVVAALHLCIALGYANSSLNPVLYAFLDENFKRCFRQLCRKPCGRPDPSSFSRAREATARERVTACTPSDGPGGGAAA
# experiment_summary: Displacement of [3H]Naltrindole from human delta opioid receptor expressed in CHO cells after 3 hrs by scintillation counting
Kindly provide the numeric value in nM only, without the unit symbol.

The examples below pair each entry with its known result.
## Input Recorded Ki for "CNc1nc2cc3c(cc2s1)C[C@@H]1[C@@H]2CCCC[C@]32CCN1CC1CC1" , please?
## Output 25

## Input Recorded Ki for "Oc1cccc(CNc2nc3cc4c(cc3s2)C[C@@H]2[C@@H]3CCCC[C@]43CCN2CC2CC2)c1" , please?
## Output 29

Now look at this one.
## Input Recorded Ki for "FC(F)(F)CNc1nc2cc3c(cc2s1)C[C@@H]1[C@@H]2CCCC[C@]32CCN1CC1CC1" , please?
## Output 180

* * *

pKi, Kappa-type opioid receptor (Homo sapiens, UniProt P41145): measured values
Lab note: report pKi as minus log10 of the concentration in molar units, number only.

## Input pKi of "CNc1nc2cc3c(cc2s1)C[C@@H]1[C@@H]2CCCC[C@]32CCN1CCCF" on Kappa-type opioid receptor (Homo sapiens, UniProt P41145)?
## Output 9.15

## Input pKi of "FC(F)(F)CNc1nc2cc3c(cc2s1)C[C@@H]1[C@@H]2CCCC[C@]32CCN1CC1CC1" on Kappa-type opioid receptor (Homo sapiens, UniProt P41145)?
## Output 9.08

More entries:
## Input pKi of "CCNc1nc2cc3c(cc2s1)C[C@@H]1[C@@H]2CCCC[C@]32CCN1CCCF" on Kappa-type opioid receptor (Homo sapiens, UniProt P41145)?
## Output 9.03
